system: COR-L23 lung carcinoma; assay: In vitro cytotoxicity IC50 (XTT), COR-L23; assay type: cell-based; conditions: Table 3, broader tumor cell line panel, 72 hours
pIC50: −log10 of the molar value.
MEASURED METRIC: pIC50

1) O=C1[O][Pt]2([NH][C@@H]3CCCC[C@H]3[NH]2)[O]C1=O    < 3.85

###

test system: MCF-7 breast adenocarcinoma tumor cell line; experiment: In vitro cytotoxicity IC50 (XTT), MCF-7; assay type: cell-based; details: Table 3, broader tumor cell line panel, 72 hours, read-out: IC50 MCF-7
pIC50: −log10 of the molar value.
MEASURED METRIC: pIC50

1. O=C1[O][Pt]2([NH][C@@H]3CCCC[C@H]3[NH]2)[O]C1=O [Oxaliplatin, oxaliplatin]    4.33

These entries and their values trace back to patent US10017532B2.
